- Test system: HeLa cells
- Test Summary: Cell cycle assay in HeLa cells
- Format: cell-based, human
- Conditions Used: HeLa cells, 150 nM oligomeric compound, 48 hours after treatment; relative to untreated control (UTC=100)
In the oligonucleotide strings, read from the 5' end, every base follows the letter of its sugar. An asterisk marks phosphorothioate; unmarked linkages are phosphodiester. Other units and linkages are bracketed, terminal groups are in braces. A string of capitals states the bases alone. e = 2'-O-(2-methoxyethyl) (MOE); [5mC] = 5-methylcytosine; d = 2'-deoxy (DNA)
// reported % cells in cell cycle phase: subG1 for each item listed
Provide the reading as a plain figure in %.

For orientation, consider the following solved cases.
Substance: 338678 (antisense CTGGTTGGGTATGAGACAGA; all 2'-MOE, all phosphorothioate, methylation of C not given here) [compound 338678]
Measured Target: HeLa cells
Measurement Type: % cells in cell cycle phase: subG1
Unit Annotation: %
Value Measured: 1158
--
Substance: 328111 (antisense eT*e[5mC]*e[5mC]*eG*eA*eG*eT*e[5mC]*eG*eG*eA*eG*eG*eA*eG*eG*eA*eG*eG*eA*eA) [compound 328111]
Measured Target: HeLa cells
Measurement Type: % cells in cell cycle phase: subG1
Unit Annotation: %
Value Measured: 371
--
Substance: 338666 (antisense TCACGTGGAGAGGAGTTAAA; all 2'-MOE, all phosphorothioate, methylation of C not given here) [compound 338666]
Measured Target: HeLa cells
Measurement Type: % cells in cell cycle phase: subG1
Unit Annotation: %
Value Measured: 1832
--
Substance: 327949 (antisense e[5mC]*eA*e[5mC]*eA*eA*eA*eT*eT*e[5mC]*eG*eG*eA*eT*e[5mC]*eT*eA*e[5mC]*eA*eG*eG*eG*eT*eA) [compound 327949]
Measured Target: HeLa cells
Measurement Type: % cells in cell cycle phase: subG1
Unit Annotation: %
Value Measured: 773
--
Substance: 328424 (antisense eA*eG*eG*eA*eA*dG*d[5mC]*dA*d[5mC]*dA*d[5mC]*dA*dT*dT*dA*eT*e[5mC]*eA*e[5mC]*eA) [compound 328424]
Measured Target: HeLa cells
Measurement Type: % cells in cell cycle phase: subG1
Unit Annotation: %
Value Measured: 89

Form field - read-out: % cells in cell cycle phase: subG1; system: HeLa cells; submitted item: 338690 (antisense TAGACAAAAACAGACTCTGA; all 2'-MOE, all phosphorothioate, methylation of C not given here) [compound 338690] 413

Param item: 340925 (antisense GTGGTAATCCCTGGCAATGTGAT; sugars from the 5' end e5 d10 e8, all phosphorothioate, methylation of C not given here) [compound 340925] 89

Record: 327910 (antisense eT*eG*eA*eT*eA*eG*e[5mC]*e[5mC]*e[5mC]*eT*eG*eT*eA*e[5mC]*eA*eA*eT*eG*e[5mC]*eT*eG*e[5mC]*eT) [compound 327910] 53

Cool, now 338769 (antisense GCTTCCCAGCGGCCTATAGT; all 2'-MOE, all phosphorothioate, methylation of C not given here) [compound 338769] 482

Same for 338836 (antisense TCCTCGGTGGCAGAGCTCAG; all 2'-MOE, all phosphorothioate, methylation of C not given here) [compound 338836] 811

Then 327901 (antisense eT*eG*eA*eG*e[5mC]*eT*eA*e[5mC]*eA*eG*eT*eG*e[5mC]*eT*eT*e[5mC]*eA*eT*e[5mC]*eT*e[5mC]*eA) [compound 327901] ? 93

Next substance up: 327878 (antisense e[5mC]*eT*eA*eG*eT*eG*eG*eT*e[5mC]*e[5mC]*eT*eA*eA*eA*e[5mC]*eA*eT*eT*eT*e[5mC]*eA*e[5mC]) [compound 327878] 50

Next record, please: 328115 (antisense eA*eG*eA*eA*eG*eG*eT*eG*eG*eG*eG*eA*eG*e[5mC]*eA*eG*e[5mC]*eG*eT*e[5mC]*eA) [compound 328115] 195

What do you get for 328362 (eT*eG*eT*eG*eT*dT*dT*dT*d[5mC]*dT*dG*dA*d[5mC]*dT*d[5mC]*eA*eG*eT*e[5mC]*eA) [compound 328362] ? 87

What do you get for 341787 (antisense CACAGGTTAAAGGGTCTCAGGGA; all 2'-MOE, all phosphorothioate, methylation of C not given here) [compound 341787] ? 707

Entry source: patent US8178506B2
